Tested on: Caupolican (Caup) homeodomain DNA-binding domain
Sequence: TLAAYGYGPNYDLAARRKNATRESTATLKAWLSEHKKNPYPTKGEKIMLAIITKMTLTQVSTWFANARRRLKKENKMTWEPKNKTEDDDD
Assay: PBM E-score (8-mer, recovered from the published 9-mer minima) (E-score (dimensionless, -0.5 to 0.5)); higher = stronger relative binding preference, active = 0.31 or more
The entries come from a sample that favours hits as a whole. The true hit rate is not given.
// allowed return values: active, inactive

For orientation, consider the following solved cases.
Macromolecule sequence | Cat
CACCCACG | inactive
GTCGCGAA | inactive
ACGTATCG | inactive
AATCATGG | inactive
AAACACTA | inactive
CCCAGGCA | inactive
AAGTATCG | inactive
ACAGGTAT | inactive
AAATGTAA | inactive
CATCTGAC | inactive

Dear all, I need the recorded test outcome for CCATAGCA , thank you.
inactive

Dear all, I need the recorded test outcome for AATGTCGC , thank you.
inactive

* * *

Test system: Caupolican (Caup) homeodomain DNA-binding domain
Sequence: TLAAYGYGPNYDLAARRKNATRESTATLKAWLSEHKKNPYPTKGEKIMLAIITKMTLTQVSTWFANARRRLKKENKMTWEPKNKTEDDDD
Assay: PBM E-score (8-mer, recovered from the published 9-mer minima) (E-score (dimensionless, -0.5 to 0.5)); higher = stronger relative binding preference, active = 0.31 or more
The sample as a whole holds a higher share of hits than the screen did. No count for the full screen is at hand.
// allowed return values: active, inactive

Dear all, I need the recorded test outcome for GCGGGTAA , thank you.
inactive

Dear all, I need the recorded test outcome for ACCTGTTA , thank you.
inactive

Dear all, I need the recorded test outcome for ACGTGTAC , thank you.
active

Dear all, I need the recorded test outcome for GCATGTTA , thank you.
active

Dear all, I need the recorded test outcome for CTCCGGAA , thank you.
inactive

Dear all, I need the recorded test outcome for AGATGTTA , thank you.
inactive

Dear all, I need the recorded test outcome for TAGCTCGA , thank you.
inactive

Dear all, I need the recorded test outcome for GTACATCA , thank you.
active

* * *

Please go through the items and note down their PBM E-score.
System: Caupolican (Caup) homeodomain DNA-binding domain
Sequence: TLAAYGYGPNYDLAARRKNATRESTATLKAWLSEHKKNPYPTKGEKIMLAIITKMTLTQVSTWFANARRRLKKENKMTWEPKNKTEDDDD
Test: PBM E-score (8-mer, recovered from the published 9-mer minima) (E-score (dimensionless, -0.5 to 0.5)); higher = stronger relative binding preference, active = 0.31 or more
Shown is part of a subset that was picked to be rich in hits. No count for the full screen is at hand.
Numbers only.

Completed entries (count: 4):
Macromolecule sequence | Measured value
CTCACCCC | -0.125
AACATTTA | 0.275
CGTGAACA | 0.206
AATGAACC | -0.0632

Would you mind listing PBM E-score for each of the following sequences?
1. GCTCGTGA
2. CATGAACG

[-0.064, 0.0839]

Would you mind listing PBM E-score for each of the following sequences?
1. CATGAACA
2. TGAGCAAA
3. CACATCTA
4. CAAATGTC

1: 0.32; 2: 0.0543; 3: 0.208; 4: 0.141

Need PBM E-score, item AACATACA
0.361

* * *

Tested on: Caupolican (Caup) homeodomain DNA-binding domain
Sequence: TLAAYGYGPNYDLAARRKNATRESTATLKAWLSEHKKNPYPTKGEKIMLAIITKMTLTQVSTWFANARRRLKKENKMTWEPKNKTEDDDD
Experiment: PBM E-score (8-mer, recovered from the published 9-mer minima) (E-score (dimensionless, -0.5 to 0.5)); higher = stronger relative binding preference, active = 0.31 or more
Many of the other results were omitted from the sample, so hits are more common in it than they were. No count for the full screen is at hand.
// allowed return values: YES (active), NO (inactive)

Dear all, I need the recorded test outcome for GCATAATA , thank you.
NO

Dear all, I need the recorded test outcome for ACATAACC , thank you.
NO

Dear all, I need the recorded test outcome for AATACAAC , thank you.
NO

Dear all, I need the recorded test outcome for AAGCATTG , thank you.
NO

Dear all, I need the recorded test outcome for AACGATGT , thank you.
YES

* * *

Test system: Caupolican (Caup) homeodomain DNA-binding domain
Sequence: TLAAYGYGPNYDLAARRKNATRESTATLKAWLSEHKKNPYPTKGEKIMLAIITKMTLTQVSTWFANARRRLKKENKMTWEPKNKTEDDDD
Assay: PBM E-score (8-mer, recovered from the published 9-mer minima) (E-score (dimensionless, -0.5 to 0.5)); higher = stronger relative binding preference, active = 0.31 or more
The full list was thinned out, with hits kept by preference. The hit rate among all sequences tested is not known here.
// allowed return values: active, inactive

For orientation, consider the following solved cases.
Macromolecule sequence | Cat
GATTAACA | inactive
CAAACATA | inactive
CTCTCCTC | inactive
CGTATAGC | inactive
GGTGGCCA | inactive

Attention now shifts to the item below.
Dear all, I need the recorded test outcome for CAAACACC , thank you.
inactive

* * *

Please go through the items and note down their PBM E-score.
Tested on: Caupolican (Caup) homeodomain DNA-binding domain
Sequence: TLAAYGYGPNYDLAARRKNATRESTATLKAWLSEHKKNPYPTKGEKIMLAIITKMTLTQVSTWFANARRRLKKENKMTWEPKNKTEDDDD
Experiment: PBM E-score (8-mer, recovered from the published 9-mer minima) (E-score (dimensionless, -0.5 to 0.5)); higher = stronger relative binding preference, active = 0.31 or more
This excerpt belongs to a sample that is enriched for hits. The true hit rate is not given.

Would you mind listing PBM E-score for each of the following sequences?
1. ATGTACGC
2. GTGTACAC

1. 0.29 (inactive)
2. 0.389 (active)

Would you mind listing PBM E-score for each of the following sequences?
1. TACGCTCA
2. ATGTACAT
3. GGCCAGTA

1: -0.00447 (inactive); 2: ≥ 0.469 (active); 3: -0.128 (inactive)

* * *

Test system: Caupolican (Caup) homeodomain DNA-binding domain
Sequence: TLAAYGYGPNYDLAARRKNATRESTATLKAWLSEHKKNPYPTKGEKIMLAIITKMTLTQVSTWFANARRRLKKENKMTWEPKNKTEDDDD
Assay: PBM E-score (8-mer, recovered from the published 9-mer minima) (E-score (dimensionless, -0.5 to 0.5)); higher = stronger relative binding preference, active = 0.31 or more
The sample as a whole holds a higher share of hits than the screen did. How many sequences the whole screen found active is unknown.
Quick rule: PBM E-score of at least 0.09 means 1.0, below that means 0.0.

For orientation, consider the following solved cases.
Macromolecule sequence | Cat
CAGATGCG | 0.0
GCACAACA | 1.0
ATAACAAC | 1.0

Attention now shifts to the item below.
I'd appreciate it if you could say whether CCATGTAG has PBM E-score at least equal to 0.09.
1.0

* * *

Tested on: Caupolican (Caup) homeodomain DNA-binding domain
Sequence: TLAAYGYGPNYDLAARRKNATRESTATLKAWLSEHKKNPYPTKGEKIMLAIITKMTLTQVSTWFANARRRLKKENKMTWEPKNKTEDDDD
Assay: PBM E-score (8-mer, recovered from the published 9-mer minima) (E-score (dimensionless, -0.5 to 0.5)); Drosophila protein; higher = stronger relative binding preference, active = 0.31 or more
The full list was thinned out, with hits kept by preference. The hit rate among all sequences tested is not known here.
// allowed return values: active, inactive

For orientation, consider the following solved cases.
Macromolecule sequence | Test system | Cat
CATGACAG | Caupolican (Caup) homeodomain DNA-binding domain | inactive
GTTAAACA | Caupolican (Caup) homeodomain DNA-binding domain | active
CCTGTTTC | Caupolican (Caup) homeodomain DNA-binding domain | inactive

Dear all, I need the recorded test outcome for ACATATCG , thank you.
inactive

Dear all, I need the recorded test outcome for GACCTACC , thank you.
inactive

Dear all, I need the recorded test outcome for AATGTGTG , thank you.
inactive

Dear all, I need the recorded test outcome for CACTGAAG , thank you.
inactive

Dear all, I need the recorded test outcome for GCTGTACC , thank you.
inactive

Dear all, I need the recorded test outcome for ATTAAACA , thank you.
inactive

Dear all, I need the recorded test outcome for AGAGTGCG , thank you.
inactive

Dear all, I need the recorded test outcome for ATCATAAC , thank you.
inactive

Dear all, I need the recorded test outcome for GTTAGTAA , thank you.
inactive

Dear all, I need the recorded test outcome for TTACTCAA , thank you.
inactive

Dear all, I need the recorded test outcome for GACATAAC , thank you.
active

Dear all, I need the recorded test outcome for ATATGTAC , thank you.
active

Dear all, I need the recorded test outcome for ACGTGGTA , thank you.
inactive

Dear all, I need the recorded test outcome for CTATGTGC , thank you.
inactive

Dear all, I need the recorded test outcome for ATATATTC , thank you.
inactive

Dear all, I need the recorded test outcome for CACTCCCC , thank you.
inactive

Dear all, I need the recorded test outcome for CTATGTAC , thank you.
active

Dear all, I need the recorded test outcome for GTCAACCA , thank you.
inactive
